Tested on: MES-SA/MX2 cells (PgP over-expressing)
Assay: Free drug cell killing on PgP over-expressing MES-SA/MX2 cells with or without PgP inhibitor GF120918
Type: cell-based
Settings: MEA-SA/MX2 cells (PgP over-expressing), No GF120918
Square brackets hold non-standard residues; d marks the D form. Peptide text beside a SMILES is read from it. * marks the point of attachment. Dolaproine = CO[C@@H]([C@@H]1CCCN1)[C@@H](C)C(=O)O; Dil = CC[C@H](C)[C@H](NC)[C@@H](CC(=O)O)OC; X1 = C[C@@H](N*)[C@@H](O)c1ccccc1; NMeV = CN[C@H](C(=O)O)C(C)C
experimental.readout: EC50 (nM)
Please state the figure in nM; there is no need to write the unit.

Problem: Item under review: CC[C@H](C)[C@@H]([C@@H](CC(=O)N1CCC[C@H]1[C@H](OC)[C@@H](C)C(=O)N[C@H](C)[C@@H](O)c1ccccc1)OC)N(C)C(=O)[C@@H](NC(=O)[C@@H](NC)C(C)C)C(C)C [free drug (III), MMAE] (H-[NMeV]V[Dil][Dolaproine]-X1) . Reported EC50?
Solution: 111
